System: PC-3
Experiment: NCI tumour cell line growth inhibition, 48 h
Active and inactive are the calls of the source. Rule as the data show it: active = GI50 up to about 1.1 µM and inactive = higher.
Below: a set of entries, each annotated with reported GI50.

Solved cases (6 shown):
- C=C(C)[C@H]1C=C[C@@H](OC(C)=O)[C@@]2(COC(C)=O)[C@H](OC(=O)CCC)[C@H]3[C@@H](OC(C)=O)[C@@H](C)C[C@]3(O)C(=O)[C@@](C)(OC(C)=O)[C@H]12: 31.6 µM (inactive)
- CC[C@]12C=CCN3CC[C@@]4(c5cc(Br)c(OC)c([N+](=O)[O-])c5N(C)[C@H]4[C@@](O)(C(=O)OC)[C@@H]1OC(C)=O)[C@@H]32: 40.4 µM (inactive)
- CCN(CC)C(=O)Cn1c(C)cc2ccccc21: > 100 µM (inactive)
- Cc1ccc(/N=N/C(=N\NC(=O)c2ccc(C)cc2)c2ccc(N(CCC#N)CCC#N)cc2C)cc1: 24 µM (inactive)
- O=C(c1cccs1)N(C(=O)N1CCN(c2ccccc2)CC1)S(=O)(=O)c1ccccc1: 29 µM (inactive)
- N#Cc1c(C#N)c(-c2ccccc2)n(-c2ccccc2)c1N: > 100 µM (inactive)

Kindly consider the entry below.
**Q:** For the compound `COc1ccc(/C=C2\C[C@H]3[C@@H]4CCC5=C/C(=N/O)CC[C@]5(C)[C@H]4CC[C@]3(C)\C2=N\O)cc1` , give its measured GI50 value.
**A:** 8.17 µM (inactive)

# credit: ChEMBL document CHEMBL1201862
